Test system: Crude diglycosidase
Experiment: Examination of temperature in the conversion into isoflavone aglycons by diglycosidase using soybean materials
Assay type: biochemical, Penicillium multicolor IAM7153
Details: 45 °C; heat treatment of enzyme: yes; 6 h
REPORTED METRIC: Decomposition efficiency of glycitin family in soymilk (%)
Numbers only, in %.

Some entries whose results are on file:
{"STRUCTURE SMILES": "COc1cc2c(=O)c(-c3ccc(O)cc3)coc2cc1O[C@@H]1O[C@H](CO)[C@@H](O)[C@H](O)[C@H]1O", "STUDY SYSTEM": "Crude diglycosidase", "OBS VALUE": 45.4}
{"STRUCTURE SMILES": "COc1cc2c(=O)c(-c3ccc(O)cc3)coc2cc1O[C@@H]1O[C@H](COC(=O)CC(=O)O)[C@@H](O)[C@H](O)[C@H]1O", "STUDY SYSTEM": "Crude diglycosidase", "OBS VALUE": 47.2}

-- ask Quick one: Decomposition efficiency of glycitin family in soymilk of COc1cc2c(=O)c(-c3ccc(O)cc3)coc2cc1O ?
-- reply 7.4

---

Could you please report measured Decomposition efficiency of glycitin family in roasted soy flour for the items listed next?
System: Crude diglycosidase
Test: Examination of temperature in the conversion into isoflavone aglycons by diglycosidase using soybean materials
Assay type: biochemical, Penicillium multicolor IAM7153
Parameters: concentration or dose not given beside the values
Settings: 65 °C; heat treatment of enzyme: no; 0 h
Give bare numbers, in %.

Example entries begin here.
{"STRUCTURE SMILES": "COc1cc2c(=O)c(-c3ccc(O)cc3)coc2cc1O[C@@H]1O[C@H](CO)[C@@H](O)[C@H](O)[C@H]1O", "ENDPOINT UNIT": "%", "OBS VALUE": 50.9}
{"STRUCTURE SMILES": "COc1cc2c(=O)c(-c3ccc(O)cc3)coc2cc1O[C@@H]1O[C@H](COC(C)=O)[C@@H](O)[C@H](O)[C@H]1O", "ENDPOINT UNIT": "%", "OBS VALUE": 38.7}

Consider now this further compound.
-- ask Look up Decomposition efficiency of glycitin family in roasted soy flour: COc1cc2c(=O)c(-c3ccc(O)cc3)coc2cc1O
-- reply 10.4

---

Tested on: Crude diglycosidase
Experiment: Examination of substrate concentration in the conversion into isoflavone aglycons by diglycosidase using soybean materials;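 note: percent of the isoflavone family total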
Assay type: biochemical, Penicillium multicolor IAM7153
Settings: soymilk, substrate concentration 5%, heat treatment of enzyme no, reaction time 0 h
REPORTED METRIC: Decomposition efficiency: ratio of each glycoside/aglycon within its isoflavone family (%)
One number for each entry, in %.

Reference set (4 entries):
{"MOLECULE": "O=C(O)CC(=O)OC[C@H]1O[C@@H](Oc2ccc3c(=O)c(-c4ccc(O)cc4)coc3c2)[C@H](O)[C@@H](O)[C@@H]1O [malonyldaidzin, 6″-O-malonyldaidzin]", "ENDPOINT UNIT": "%", "OBS VALUE": 53.6}
{"MOLECULE": "O=c1c(-c2ccc(O)cc2)coc2cc(O[C@@H]3O[C@H](CO)[C@@H](O)[C@H](O)[C@H]3O)ccc12 [daidzin]", "ENDPOINT UNIT": "%", "OBS VALUE": 34.2}
{"MOLECULE": "O=C(O)CC(=O)OC[C@H]1O[C@@H](Oc2cc(O)c3c(=O)c(-c4ccc(O)cc4)coc3c2)[C@H](O)[C@@H](O)[C@@H]1O [malonylgenistin, 6″-O-malonylgenistin]", "ENDPOINT UNIT": "%", "OBS VALUE": 58.2}
{"MOLECULE": "COc1cc2c(=O)c(-c3ccc(O)cc3)coc2cc1O[C@@H]1O[C@H](CO)[C@@H](O)[C@H](O)[C@H]1O [glycitin]", "ENDPOINT UNIT": "%", "OBS VALUE": 49.4}

-- ask What value of Decomposition efficiency: ratio of each glycoside/aglycon within its isoflavone family has been recorded for this entry: O=c1c(-c2ccc(O)cc2)coc2cc(O[C@@H]3O[C@H](CO)[C@@H](O)[C@H](O)[C@H]3O)cc(O)c12 [genistin]
-- reply 31.5

The values you see were collected from patent US7118895B2.
